Test: IV pharmacokinetics in monkeys
Conditions: cynomolgus monkey, in vivo, 15 mg/kg single IV dose (free base) as glucuronate salt
Property Name: AUC(0-inf) (ng·h/mL)

molecule="CNCc1ccc(-c2[nH]c3cc(F)cc4c3c2CCNC4=O)cc1 [compound of formula 1]" property_name=AUC(0-inf) result_number=7400

* * *

Test: Plasma and tumor levels by HPLC/MS in mice bearing SW620 xenograft
Assay type: in vivo
Details: mouse, plasma, intraperitoneal, 1 mg/kg, Plasma compound of formula 1, 1.0 mg/kg i.p. as phosphate salt; 24 h
Property Name: concentration at 24 h (ng/mL)

molecule="CNCc1ccc(-c2[nH]c3cc(F)cc4c3c2CCNC4=O)cc1 [compound of formula 1]" unit_spec=ng/mL result_number=1.85

* * *

Test: Plasma and tumor levels by HPLC/MS in mice bearing SW620 xenograft
Format: in vivo
Conditions: mouse, tumor, intraperitoneal, 10 mg/kg, Tumor compound of formula 1, 10 mg/kg i.p. as phosphate salt; 0.5 h
Property Name: concentration at 0.5 h (ng/g)

compound="CNCc1ccc(-c2[nH]c3cc(F)cc4c3c2CCNC4=O)cc1 [compound of formula 1]" property_name="concentration at 0.5 h" result_number=767

* * *

Experiment: IV pharmacokinetics in dogs
Settings: Beagle, in vivo; dog; 15 mg/kg single IV dose as glucuronate salt
Property Name: clearance (mL/min/kg)

molecule_smiles=CNCc1ccc(-c2[nH]c3cc(F)cc4c3c2CCNC4=O)cc1 property_name=clearance result_number=61.8

* * *

Experiment: IV pharmacokinetics in monkeys
Details: cynomolgus monkey, in vivo, 15 mg/kg single IV dose as glucuronate salt, read-out: Vss
Property Name: Vd

molecule_smiles=CNCc1ccc(-c2[nH]c3cc(F)cc4c3c2CCNC4=O)cc1 result="7.2 L/kg"

Hey, just so you know, these numbers are from patent US20060074073A1.
